These data points were gathered from PubChem BioAssay (NCI).

system: NCI-H226 lung; assay: NCI-60 one-dose screen, 48 h (100 = growth as untreated, 0 = no growth, -100 = all killed); conditions: 10 µM unless noted
This is part of a sample that, as a whole, favours compounds with a hit. Of some 83,000 tested, about 20% had one in any assay.
# strict inequality: growth < 70% yields satisfied, everything else yields not satisfied

- O=C(NOCCO)c1cc(CN2OCCCC2=O)c(F)c(F)c1Nc1ccc(I)cc1F: satisfied
- Cc1oc2c(C(=O)N/N=C\c3ccc(O)cc3O)c[nH]c2c1C: satisfied
- C=CC[n+]1c(/C=C2\Sc3ccccc3N2C)sc(-c2ccccc2)c1-c1ccccc1: satisfied
- CC#CC(=O)N1CCC[C@H]1c1nc(-c2ccc(C(=O)Nc3ccccn3)cc2)c2c(N)nccn12: not satisfied
- COCc1c(-c2ccc(NC(=O)Nc3cc(C(F)(F)F)ccc3F)c(F)c2)c2c(N)ncnn2c1CN1CCOCC1: satisfied
- O=C(Cn1cncn1)Nc1ccc(-c2nc3ccccc3s2)cc1: not satisfied
- COc1cc2c(cc1OCCCCCN1CCN(c3ncnc4ccccc34)CC1)N=CC1CCCN1C2=O (centres undefined): satisfied
- CC(C)(O)CC(=O)NCCn1ccc2ncnc(Nc3ccc(Oc4cccc(C(F)(F)F)c4)c(Cl)c3)c21: satisfied
- COc1cccc2cc(-c3nc(C4CCC(C(=O)O)CC4)n4ncnc(N)c34)[nH]c12 (centres undefined): satisfied
- CCc1nc2cc(/C=C/C(=O)NO)c(F)cc2c(=O)n1CCc1ccccc1: satisfied
- Nc1c(Cl)cccc1[N+](=O)[O-]: not satisfied
- O=C(NOCCO)c1ccc2cncn2c1Nc1ccc(I)cc1F: satisfied
- CCN(CC)CCOc1ccc(/C(=C(\C)c2ccc(Cl)cc2)c2ccc(Cl)cc2)cc1: not satisfied
- COc1ccc(-c2cnc(-c3ccc(Cl)cc3)[nH]2)cc1OC: not satisfied
- CNC(=O)c1cccc2cc(Oc3ccnc4cc(OCC5(N)CC5)c(OC)cc34)ccc12: satisfied
- O=C1C=CC2(NN=C(c3ccccc3)N2c2ccccc2)c2cccc(O)c21 (centres undefined): satisfied
- NN1C(=O)CSC1=S: not satisfied
- Cc1nc(-c2cn3c(n2)-c2ccc(-c4cnn(C(C)(C)C(N)=O)c4)cc2OCC3)n(C(C)C)n1: satisfied
- Ic1ccccc1-c1ccccc1: not satisfied
- Nc1nc(N)c2nc(-c3cccc(O)c3)c(-c3cccc(O)c3)nc2n1: not satisfied
- Cc1c(NC(=O)OC[C@@H]2COCCN2)cn2ncnc(Nc3ccc4c(cnn4Cc4cccc(F)c4)c3)c12: satisfied
- CO[C@H](C(=O)N[C@@H](CCCCNC(=O)OCc1ccccc1)C(=O)OC(C)(C)C)[C@@H]1Cc2cc3cc(OC4CC(OC5CC(O)C(O)C(C)O5)C(O)C(C)O4)c(C)c(O)c3c(O)c2C(=O)[C@H]1OC1CC(OC2CC(OC3CC(C)(O)C(O)C(C)O3)C(O)C(C)O2)C(O)C(C)O1 (some centres undefined): satisfied
- Cc1ccccc1N1C(c2ccccc2)=NNC12C=CC(=O)C=C2Cl (centres undefined): not satisfied
- CN1CCC(CNc2ccc3ncc(-c4cccc(OC(F)(F)F)c4)n3n2)CC1: satisfied
- Cc1ccc(-n2nc(C(C)(C)C)cc2NC(=O)NCc2cc(F)ccc2Oc2ccc3c(cnn3CCO)c2)cc1: satisfied
- CCCCCCCC12Cc3ccccc3C1=Nc1c(c3ccccc3n1C)C2=O (centres undefined): not satisfied
- O=C(N/N=C/c1ccc(Cl)cc1)c1cc(-c2cc3ccccc3o2)nn1-c1ccccc1: not satisfied
- CCc1nc2cc(/C=C/C(=O)NO)ccc2c(=O)n1CCc1ccc(F)cc1: satisfied
- O=C(NO)c1ccc(Cn2c(=O)n(CCc3ccccc3)c(=O)c3ccccc32)cc1: satisfied
- O=C(Cn1ccnc1)Nc1ccc(-c2nc3ccccc3s2)cc1: satisfied
- O=C(Cc1ccc(-c2ccc(OCCN3CCOCC3)cc2)cn1)NCc1ccccc1: satisfied
- COc1c(OCCCN2CCOCC2)ccc2c3n(c(=NC(=O)c4cnc(N)nc4)nc12)CCN3: satisfied
- CO/C=C/C(=O)c1cc2cnc3c(=N)cc(NC(=O)C(C)C)c([nH]1)c23: satisfied
- Cc1ccc(NC(=O)c2ccc(CN3CC[C@H](N(C)C)C3)c(C(F)(F)F)c2)cc1Nc1nccc(-c2cncnc2)n1: satisfied
- C1=C\COCc2cc(ccc2OCCN2CCCC2)Nc2nccc(n2)-c2cccc(c2)COC/1: satisfied
- CCCCCCCC(=O)SCC/C=C/[C@@H]1CC(=O)NCc2cccc(n2)C2=N[C@@](C)(CS2)C(=O)N[C@@H](C(C)C)C(=O)O1: satisfied
- Clc1ccc2c(NCCCNCc3ccc4c(c3)OCO4)ccnc2c1: not satisfied
- CC1(C=O)NC(=O)NC1=O (centres undefined): not satisfied
